assay: viability loss in pontine glioma line – cell-based, SU-DIPG-XIII, MIPE5.0, CellTiter-Glo, qHTS, dose response (AID 1347064); conditions: CellTiter-Glo ATP luminescence;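 as to AC50: cells exposed to compound for 48 hours before the viability read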
Results filed as inconclusive are left out. Activity calls are given as the source filed them. The limit is not given here; nearly all actives have AC50 up to about 23 µM.
Choose one outcome from this list and give only that: Y (active), N (inactive)

Past entries and their recorded results:
CO[C@@]12[C@H](COC(N)=O)C3=C(C(=O)C(C)=C(N)C3=O)N1C[C@@H]1N[C@@H]12 | Y
CCCc1cc(C(N)=S)ccn1 | N
O=C(O)c1cn(-c2ccc(F)cc2)c2cc(N3CCNCC3)c(F)cc2c1=O | N

How was "CC(C)c1ccc2oc3nc(N)c(C(=O)O)cc3c(=O)c2c1" classified in this test?
N

How was "Cn1c(=O)c2c(ncn2C)n(C)c1=O" classified in this test?
N

How was COc1ccc2nc(S(=O)Cc3ncc(C)c(OC)c3C)[nH]c2c1 (stereo unspecified) classified in this test?
N

----------
test system: R275C/beta2Delta; test: BK channel mutant inhibitors and activators – cell-based, U2OS BacMam, thallium flux, beta subunits, selectivity assay, profiling panel (AID 1259406); conditions: U2OS BacMam BK variants, at 30 µM;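 also: initial slope of Thallos dye fluorescence rise after thallium is added; log ratio against the mean of 0.3% DMSO vehicle wells on the same plate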
PROPERTY_LABEL: log fold change Tl+ flux
Number only, no unit.

For orientation, consider the following solved cases.
CN1CCN(C2=Nc3cc(F)ccc3Cc3ccccc32)CC1 | 0.0198
CC(=O)O[C@H]1C[C@@H]2CC[C@@H]3[C@H](CC[C@@]4(C)[C@H]3C[C@H]([N+]3(C)CCCCC3)[C@@H]4OC(C)=O)[C@@]2(C)C[C@@H]1N1CCCCC1 | -0.0355

Consider the compound shown here: "CCc1oc2ccccc2c1C(=O)c1cc(Br)c(O)c(Br)c1" What is its recorded log fold change Tl+ flux?
0.431

Consider the compound shown here: "CC(C)(O)c1ccccc1CC[C@@H](SCC1(CC(=O)O)CC1)c1cccc(/C=C/c2ccc3ccc(Cl)cc3n2)c1" What is its recorded log fold change Tl+ flux?
0.293

Consider the compound shown here: "CN(Cc1cnc2nc(N)nc(N)c2n1)c1ccc(C(=O)N[C@@H](CCC(=O)O)C(=O)O)cc1" What is its recorded log fold change Tl+ flux?
0.0014

Consider the compound shown here: COc1ccc(C2CNC(=O)C2)cc1OC1CCCC1 (configuration not stated) What is its recorded log fold change Tl+ flux?
-0.00816

Consider the compound shown here: "Nc1[nH]c(=O)ncc1F" What is its recorded log fold change Tl+ flux?
0.00516

----------
assay: inhibition of endothelial tube formation, primary screen, imaging, VEGF stimulated, CD31 staining, tube area, NPC library (AID 1117340); details: VEGF-stimulated ADSC/ECFC co-culture, at 10 µM, stronger effect = higher value
Readings of tube area decrease for the listed molecules
Give just the number in %; leave the unit off.

COc1ccc(C2CNC(=O)C2)cc1OC1CCCC1 (stereo not drawn) | 1.1

Consider the molecule shown here: "COc1ccc(C(=O)c2ccccc2)c(O)c1" What is its recorded tube area decrease?
6.3

Consider the molecule shown here: "Nc1ccc(C(=O)NCC(=O)O)cc1" What is its recorded tube area decrease?
-2.1

----------
Readings of log fold change Tl+ flux for the listed compounds
tested on: F380Y/beta1; experiment: BK channel mutant inhibitors and activators – cell-based, U2OS BacMam, thallium flux, beta subunits, selectivity assay, profiling panel (AID 1259406); details: U2OS BacMam BK variants, at 30 µM;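 also: initial slope of Thallos dye fluorescence rise after thallium is added; log ratio against the mean of 0.3% DMSO vehicle wells on the same plate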
Number only, no unit.

For orientation, consider the following solved cases.
Cc1ccnc2c1NC(=O)c1cccnc1N2C1CC1 | 0.0188
Nc1nc2c(ncn2COC(CO)CO)c(=O)[nH]1 | 0.0388
Clc1ccc2nsnc2c1NC1=NCCN1 | -0.0369

Consider the compound shown here: "CN(CCCN1c2ccccc2CCc2ccccc21)CC(=O)c1ccc(Cl)cc1" What is its recorded log fold change Tl+ flux?
-0.0237

Consider the compound shown here: "CCOC(=O)O[C@]1(C(=O)OCCl)CC[C@H]2[C@@H]3CCC4=CC(=O)C=C[C@]4(C)[C@H]3[C@@H](O)C[C@@]21C" What is its recorded log fold change Tl+ flux?
-0.0185

Consider the compound shown here: Cc1ncc([N+](=O)[O-])n1CC(O)CCl (centres undefined) What is its recorded log fold change Tl+ flux?
-0.0206

Consider the compound shown here: "O=C(NCCO[N+](=O)[O-])c1cccnc1" What is its recorded log fold change Tl+ flux?
0.00537

Consider the compound shown here: "CCOc1cc(CC(=O)N[C@@H](CC(C)C)c2ccccc2N2CCCCC2)ccc1C(=O)O" What is its recorded log fold change Tl+ flux?
0.45

Consider the compound shown here: "NC(=O)OCC(COC(N)=O)c1ccccc1" What is its recorded log fold change Tl+ flux?
-0.0115

----------
experiment: EMT-state selective cytotoxicity in co-culture – imaging, PC-3E GFP, TEM4-18 mCherry, primary screen (AID 1345086); conditions: PC-3E GFP / TEM4-18 mCherry co-culture, imaging cell counts; measured here: epithelial PC-3E GFP cell survival; at 1 µM;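 also: cells exposed to compound for 72 h before imaging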
Peptide text beside a SMILES is read from it.
Readings of normalised cell number for the listed compounds
Number only, no unit.

Cc1nnc(SCC2=C(C(=O)O)N3C(=O)[C@@H](NC(=O)Cn4cnnn4)[C@H]3SC2)s1 | 1.16

Consider the compound shown here: "O=C(O)c1ccc(S(=O)(=O)N(Cl)Cl)cc1" What is its recorded normalised cell number?
1.13

Consider the compound shown here: COC(=O)[C@H](Cc1ccccc1)NC(=O)[C@@H](N)CC(=O)O (H-Asp-Phe-OMe) What is its recorded normalised cell number?
1.01

Consider the compound shown here: "Cc1ccc(C(=O)c2ccc(CC(=O)O)n2C)cc1" What is its recorded normalised cell number?
1.11

Consider the compound shown here: "O=C(N[C@H](CO)[C@H](O)c1ccc([N+](=O)[O-])cc1)C(Cl)Cl" What is its recorded normalised cell number?
1.21

Consider the compound shown here: "Cc1cn([C@H]2C=C[C@@H](CO)O2)c(=O)[nH]c1=O" What is its recorded normalised cell number?
1.35

----------
assay: MELAS cybrid and Rieske KO viability enhancers – cell-based, MELAS cybrids, Rieske KO mouse fibroblasts, CellTiter-Glo, primary screen (AID 1508586); details: Rieske KO mouse fibroblast survival, low glucose, CellTiter-Glo 72 h;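 also: z relative to plate mean and SD of compound and empty wells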
Outcome: criterion met for z-score of at least 0.08; criterion not met for anything lower.

Confirm if z-score reported for the compound "COc1cc2c(Nc3ccc(Br)cc3F)ncnc2cc1OCC1CCN(C)CC1" is 0.08 or above.
criterion not met

Confirm if z-score reported for the compound "Cc1nc(-c2ccc(OCC(C)C)c(C#N)c2)sc1C(=O)O" is 0.08 or above.
criterion met

Confirm if z-score reported for the compound "Nc1cc(-c2ccncc2)c[nH]c1=O" is 0.08 or above.
criterion not met

Confirm if z-score reported for the compound "CC(C)c1nc(CN(C)C(=O)N[C@H](C(=O)N[C@@H](Cc2ccccc2)C[C@H](O)[C@H](Cc2ccccc2)NC(=O)OCc2cncs2)C(C)C)cs1" is 0.08 or above.
criterion met

Confirm if z-score reported for the compound "NCCS" is 0.08 or above.
criterion not met

Confirm if z-score reported for the compound "COc1cc2c3cc1Oc1cc(ccc1O)C[C@@H]1c4c(cc(OC)c(O)c4Oc4ccc(cc4)C[C@@H]3N(C)CC2)CC[N+]1(C)C" is 0.08 or above.
criterion not met

----------
assay: growth inhibition of DIPG cells – cell-based, MIPE4.0 library, CellTiter-Glo luminescence, qHTS (AID 1347066); conditions: SU-DIPG-VI viability, CellTiter-Glo ATP luminescence;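 also: cells exposed to compound for 48 hours before readout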
Results filed as inconclusive are left out. The source made the active and inactive calls. No cut-off is given here; in the data, nearly all actives have AC50 up to about 30 µM.
Choose one outcome from this list and give only that: active, inactive

Cc1nc2n(c(=O)c1CCN1CCC(c3noc4cc(F)ccc34)CC1)CCCC2 | inactive
COC1=C(OC)C(=O)C(CCCCCCCCCCO)=C(C)C1=O | active
CCCN[C@H]1CCc2nc(N)sc2C1 | inactive
Cc1cc2cc3c(C)cc(=O)oc3c(C)c2o1 | inactive
COc1cc2nc(N3CCN(C(=O)C4CCCO4)CC3)nc(N)c2cc1OC (centres undefined) | inactive

How was CC(C)NCC(O)COc1ccc(COCCOC(C)C)cc1 (centres undefined) classified in this test?
inactive

How was "Cc1ccc(NC(=O)c2ccc(CN3CCN(C)CC3)cc2)cc1Nc1nccc(-c2cccnc2)n1" classified in this test?
inactive

How was "Cn1nnc2c(C(N)=O)ncn2c1=O" classified in this test?
inactive

How was "COc1cc2c(Nc3ccc(Br)cc3F)ncnc2cc1OCC1CCN(C)CC1" classified in this test?
active

----------
test: EMT-state selective cytotoxicity in co-culture – imaging, PC-3E GFP, TEM4-18 mCherry, primary screen (AID 1345086); settings: PC-3E GFP / TEM4-18 mCherry co-culture, imaging cell counts; at 1 µM; actives lie on both sides; counts scaled to control wells, 1 = unselective;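 also: cells exposed to compound for 72 h before imaging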;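 as to red/green cell ratio (normalised): normalised mesenchymal count divided by normalised epithelial count so high means epithelial killing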
Readings of red/green cell ratio (normalised) for the listed compounds
Number only, no unit.

CCCCCCCCCCCCCCCCCCOCC(O)CO (configuration not stated) | 1

Consider the compound shown here: "CN(C)CCC=C1c2ccccc2C=Cc2ccccc21" What is its recorded red/green cell ratio (normalised)?
1.06

Consider the compound shown here: "COC(=O)N/N=C/c1c[n+]([O-])c2ccccc2[n+]1[O-]" What is its recorded red/green cell ratio (normalised)?
0.65

Consider the compound shown here: "Cc1cc2c(C(C)C)c(O)c(O)c(C=O)c2c(O)c1-c1c(C)cc2c(C(C)C)c(O)c(O)c(C=O)c2c1O" What is its recorded red/green cell ratio (normalised)?
0.91

Consider the compound shown here: "NCCCC[C@H](N[C@@H](CCc1ccccc1)C(=O)O)C(=O)N1CCC[C@H]1C(=O)O" What is its recorded red/green cell ratio (normalised)?
1.65

Consider the compound shown here: "CN1CCC(=C2c3ccccc3Sc3ccccc32)CC1" What is its recorded red/green cell ratio (normalised)?
1.08

Consider the compound shown here: "CN1CCN(C(c2ccccc2)c2ccccc2)CC1" What is its recorded red/green cell ratio (normalised)?
1.46

Consider the compound shown here: "COc1cnc(NS(=O)(=O)c2ccc(N)cc2)nc1" What is its recorded red/green cell ratio (normalised)?
1.15

Consider the compound shown here: "C=CCc1ccc(O)c(OC)c1" What is its recorded red/green cell ratio (normalised)?
1.2

Consider the compound shown here: "CC(C)c1nc(CN(C)C(=O)N[C@H](C(=O)N[C@@H](Cc2ccccc2)C[C@H](O)[C@H](Cc2ccccc2)NC(=O)OCc2cncs2)C(C)C)cs1" What is its recorded red/green cell ratio (normalised)?
1.06

Consider the compound shown here: COC(=O)C1=C(C)NC(C)=C(C(=O)OCC(C)C)C1c1ccccc1[N+](=O)[O-] (configuration not stated) What is its recorded red/green cell ratio (normalised)?
0.97

Consider the compound shown here: "COc1ccc(CN(CCN(C)C)c2ccccn2)cc1" What is its recorded red/green cell ratio (normalised)?
1.1
